# target_entity: R24M PTP1B (Homo sapiens, UniProt P18031, R24M)
# Sequence (P18031 1-321 R24M): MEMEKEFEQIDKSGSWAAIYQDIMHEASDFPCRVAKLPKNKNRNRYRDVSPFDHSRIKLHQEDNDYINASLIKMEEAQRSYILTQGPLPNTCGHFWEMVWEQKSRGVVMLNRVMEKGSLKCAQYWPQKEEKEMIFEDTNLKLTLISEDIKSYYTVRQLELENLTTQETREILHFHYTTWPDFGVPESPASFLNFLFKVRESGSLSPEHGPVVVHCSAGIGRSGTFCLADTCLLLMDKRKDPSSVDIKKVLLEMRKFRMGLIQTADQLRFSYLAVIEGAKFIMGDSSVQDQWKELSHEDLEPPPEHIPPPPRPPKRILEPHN
# assay_comment: PTP assay, R24M PTP1B
# Assay type: biochemical
# measurement_conditions: R24M PTP1B aa 1–321; pH 7.4
Recorded kcat/KM x 10^7 by entry

Example results:
AApYAADDA	0.55 x 10^7 M^−1 s^−1
AApYDDAAA	0.027 x 10^7 M^−1 s^−1
AApYAAADD	0.43 x 10^7 M^−1 s^−1

query: Which kcat/KM x 10^7 reading was recorded for the substance AApYADDAA ?
result: 0.59 x 10^7 M^−1 s^−1

query: Record: EEDNAWpYAA
result: 1.8 x 10^7 M^−1 s^−1

query: Record: Ac-AWGPLpYDEVQM-NH2
result: 0.72 x 10^7 M^−1 s^−1

query: Record: DPRGIpYDQVAG
result: 0.051 x 10^7 M^−1 s^−1

query: Record: AApYIRKRA
result: 0.065 x 10^7 M^−1 s^−1

query: Record: AApYDDIDE
result: 0.11 x 10^7 M^−1 s^−1
